test system: GDP-bound KRAS protein (aa 1-169) G12D/C118A (Homo sapiens (Human), UniProt P01116, C118A/G12D)
Sequence (P01116 other isoform, or with tags, fused parts or gaps G12D/C118A): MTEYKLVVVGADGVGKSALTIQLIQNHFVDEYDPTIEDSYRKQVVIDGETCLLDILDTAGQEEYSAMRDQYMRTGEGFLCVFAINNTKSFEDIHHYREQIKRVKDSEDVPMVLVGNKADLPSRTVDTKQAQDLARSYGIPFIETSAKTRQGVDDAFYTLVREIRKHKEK
run description: Coupled Nucleotide Exchange Assay (KRAS G12D)
Format: biochemical
pIC50: −log10 of the molar value.
observed property: pIC50

[
  {
    "smiles notation": "Cc1ccnc(C(C)C)c1-n1c(=O)nc(N2CCN(C(=O)CF)C[C@@H]2C)c2cc(Cl)c(-c3ccccc3F)nc21",
    "observed result": "< 3.60"
  }
]

* * *

test system: GDP-bound KRAS protein (aa 1-169) G12C/C118A (Homo sapiens (Human), UniProt P01116, C118A/G12C)
Sequence (P01116 other isoform, or with tags, fused parts or gaps G12C/C118A): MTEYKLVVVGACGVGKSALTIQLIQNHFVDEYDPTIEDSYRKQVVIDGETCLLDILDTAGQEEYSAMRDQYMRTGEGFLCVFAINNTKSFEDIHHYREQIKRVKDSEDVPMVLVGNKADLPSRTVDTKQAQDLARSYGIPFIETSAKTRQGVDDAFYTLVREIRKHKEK
run description: Coupled Nucleotide Exchange Assay (KRAS G12C)
Assay type: biochemical
condition: GDP KRAS G12C 20 h Coupled Exchange IC50 IP, 20 h compound pre-incubation
observed property: IC50 (µM)

[
  {
    "smiles notation": "Cc1ccnc(C(C)C)c1-n1c(=O)nc(N2CCN(C(=O)CF)C[C@@H]2C)c2cc(Cl)c(-c3ccccc3F)nc21",
    "observed result": 13.4
  }
]
